Test system: E. coli CSH(RE45)
Assay: microbe, parasite or virus in culture
Assay type: cell-based
Settings: *E. coli CSH(RE45), lactamase-producing strain; 10^6 CFU/ml
Would you kindly list Minimum Inhibitory Concentration (MIC) for each of these compounds?
Express your answer in µg/mL, writing the number without its unit.

Give E. coli CSH(RE45) Minimum Inhibitory Concentration (MIC) for Nc1nc(C(=NOC(C(=O)O)c2ccccc2)C(=O)NC2C(=O)N3C(C(=O)O)=C(CSc4nc(C(=O)O)c(-c5ccc(O)c(O)c5)s4)CSC23)cs1 (single isomer, unassigned) [Example 51 DB] 0.0125

Entry Nc1nc(C(=NOC(C(=O)O)c2ccc(O)c(O)c2)C(=O)NC2C(=O)N3C(C(=O)O)=C(CSc4nnc(-c5ccc(O)c(O)c5)s4)CSC23)cs1 (single isomer, unassigned) [Example 38 DB] please 0.0125

Entry CC(=O)Oc1ccc(-c2nc(SCC3=C(C(=O)O)N4C(=O)C(NC(=O)C(=NOC(C(=O)O)c5ccccc5)c5csc(N)n5)C4SC3)sc2CC(=O)O)cc1OC(C)=O (single isomer, unassigned) [Example 61 DB] please 12.5

Entry CC(=O)Oc1ccc(-c2nc(SCC3=C(C(=O)O)N4C(=O)C(NC(=O)C(=NOC(C(=O)O)c5ccccc5)c5csc(N)n5)C4SC3)sc2CC(=O)O)cc1OC(C)=O (single isomer, unassigned) [Example 61 DA] please 3.12

Entry Nc1nc(C(=NOC(C(=O)O)c2ccccc2)C(=O)NC2C(=O)N3C(C(=O)O)=C(CSc4nc(C(=O)O)c(-c5ccc(O)c(O)c5)s4)CSC23)cs1 (single isomer, unassigned) [Example 51 DA] please 0.1

Entry Nc1nc(/C(=N/OC(C(=O)O)c2ccccc2)C(=O)N[C@@H]2C(=O)N3C(C(=O)O)=C(CSc4nnc(-c5ccc(O)c(O)c5)o4)CS[C@H]23)cs1 (single isomer, unassigned) [Example 24 DB] please 0.0125

---

Would you kindly list MIC for each of these compounds?
Test system: Ps. aeruginosa AKR17
Experiment: in vitro antibacterial activity, agar plate dilution method (MIC)
Format: cell-based, Pseudomonas aeruginosa
Conditions: Pseudomonas aeruginosa, 16 h; Ps. aeruginosa AKR17; 10^6 CFU/ml; read-out: Minimum Inhibitory Concentration (MIC)

Which MIC is reported for this compound? C=CCO/N=C(\C(=O)N[C@@H]1C(=O)N2C(C(=O)O)=C(CSc3nnc(-c4ccc(O)c(O)c4)o3)CS[C@H]12)c1csc(N)n1 100 µg/mL

Entry CON=C(C(=O)NC1C(=O)N2C(C(=O)O)=C(CSc3nc(-c4ccc(O)c(O)c4)cs3)CSC12)c1csc(N)n1 (stereo not drawn) please > 100 µg/mL

Entry CCO/N=C(\C(=O)N[C@@H]1C(=O)N2C(C(=O)O)=C(CSc3ncc(-c4ccc(OC(C)=O)c(OC(C)=O)c4)o3)CS[C@H]12)c1csc(N)n1 please 50 µg/mL

Entry CON=C(C(=O)NC1C(=O)N2C(C(=O)O)=C(CSc3nc(C(=O)O)c(-c4ccc(O)c(O)c4)s3)CSC12)c1csc(N)n1 (stereo not drawn) please > 100 µg/mL

Entry Nc1nc(/C(=N/OCc2ccccc2)C(=O)N[C@@H]2C(=O)N3C(C(=O)O)=C(CSc4nnc(-c5ccc(O)c(O)c5)s4)CS[C@H]23)cs1 please > 100 µg/mL

Entry CC(C)(O/N=C(\C(=O)N[C@@H]1C(=O)N2C(C(=O)O)=C(CSc3nnc(-c4ccccc4)o3)CS[C@H]12)c1csc(N)n1)C(=O)O [compound 3, reference compound] please > 100 µg/mL

---

Would you kindly list MIC for each of these compounds?
Test system: P. vulgaris No. 33
Experiment: in vitro antibacterial activity, agar plate dilution method (MIC)
Type: cell-based
Settings: Proteus vulgaris, NO.33, 16 h, read-out: Minimum Inhibitory Concentration (MIC), *P. vulgaris No. 33, lactamase-producing strain; 10^6 CFU/ml
Express your answer in µg/mL, writing the number without its unit.

Which MIC is reported for this compound? CO/N=C(\C(=O)N[C@@H]1C(=O)N2C(C(=O)O)=C(CSc3ncc(-c4ccc(O)cc4)o3)CS[C@H]12)c1csc(N)n1 [compound 23, reference compound] 0.78

Entry CON=C(C(=O)NC1C(=O)N2C(C(=O)O)=C(CSc3nc(C(=O)O)c(-c4ccc(O)c(O)c4)s3)CSC12)c1csc(N)n1 (stereo not drawn) [Ex. 52] please 0.1

Entry CC(C)(ON=C(C(=O)NC1C(=O)N2C(C(=O)O)=C(CSc3nc(-c4ccc(O)c(O)c4)cs3)CSC12)c1csc(N)n1)C(=O)O (stereo not drawn) [Ex. 44] please 0.025

---

Would you kindly list MIC for each of these molecules?
System: S. aureus 209P NIHJ-JC1
Assay: in vitro antibacterial activity, agar plate dilution method (MIC)
Format: cell-based
Conditions: Staphylococcus aureus, 16 h, read-out: Minimum Inhibitory Concentration (MIC), S. aureus 209P NIHJ-JC1; 10^6 CFU/ml, 37° C., 16 hours
Express your answer in µg/mL, writing the number without its unit.

Give S. aureus 209P NIHJ-JC1 MIC for CC(C)(O/N=C(\C(=O)N[C@@H]1C(=O)N2C(C(=O)O)=C(CSc3ncc(-c4ccccc4)o3)CS[C@H]12)c1csc(N)n1)C(=O)O [compound 22, reference compound] 6.25

Entry CC(C)(O/N=C(\C(=O)N[C@@H]1C(=O)N2C(C(=O)O)=C(CSc3nnc(-c4ccc(O)cc4)s3)CS[C@H]12)c1csc(N)n1)C(=O)O [compound 8, reference compound] please 6.25

Entry CCO/N=C(\C(=O)N[C@@H]1C(=O)N2C(C(=O)O)=C(CSc3nnc(-c4ccc(O)c(O)c4)o3)CS[C@H]12)c1csc(N)n1 [Ex. 5] please 0.78

Entry C=CCON=C(C(=O)NC1C(=O)N2C(C(=O)O)=C(CSc3nc(C(=O)O)c(-c4ccc(O)c(O)c4)s3)CSC12)c1csc(N)n1 (stereo not drawn) [Ex. 55] please 6.25

Entry Nc1nc(/C(=N/OCc2ccc(O)c(O)c2)C(=O)N[C@@H]2C(=O)N3C(C(=O)O)=C(CSc4nnc(-c5ccc(O)c(O)c5)o4)CS[C@H]23)cs1 [Ex. 14] please 1.56

Entry Nc1nc(/C(=N/Oc2ccccc2)C(=O)N[C@@H]2C(=O)N3C(C(=O)O)=C(CSc4nnc(-c5ccc(O)c(O)c5)o4)CS[C@H]23)cs1 [Ex. 22] please 0.78

---

System: E. coli CSH(RE45)
Assay: microbe, parasite or virus in culture
Assay type: cell-based
Details: Escherichia coli, 16 h, read-out: Minimum Inhibitory Concentration (MIC), *E. coli CSH(RE45), lactamase-producing strain; 10^6 CFU/ml
Where a name gives a salt, the structure may show the parent alone.
Would you kindly list MIC for each of these compounds?

Which MIC is reported for this compound? Nc1nc(/C(=N/OC(C(=O)O)c2ccccc2)C(=O)N[C@@H]2C(=O)N3C(C(=O)O)=C(CSc4nnc(-c5ccc(O)c(O)c5)o4)CS[C@H]23)cs1 (some centres unmarked) [Ex. 15] 3.12 µg/mL

Entry CC(C)(O/N=C(\C(=O)N[C@@H]1C(=O)N2C(C(=O)O)=C(CSc3ncc(-c4ccc(O)cc4)o3)CS[C@H]12)c1csc(N)n1)C(=O)O [compound 24, reference compound] please 3.12 µg/mL

Entry CO/N=C(\C(=O)N[C@@H]1C(=O)N2C(C(=O)O)=C(CSc3nnc(-c4ccc(O)cc4)s3)CS[C@H]12)c1csc(N)n1 [compound 7, reference compound] please 0.2 µg/mL

Entry Nc1nc(/C(=N/OC2(C(=O)O)CC2)C(=O)N[C@@H]2C(=O)N3C(C(=O)O)=C(CSc4nnc(-c5ccc(O)c(O)c5)s4)CS[C@H]23)cs1 [Ex. 35] please < 0.006 µg/mL

Entry CO/N=C(\C(=O)N[C@@H]1C(=O)N2C(C(=O)O)=C(CSc3nc(-c4ccc(OC)c(OC)c4)cs3)CS[C@H]12)c1csc(N)n1 [compound 13, trifluoroacetate, reference compound] please 6.25 µg/mL

Entry CON=C(C(=O)NC1C(=O)N2C(C(=O)O)=C(CSc3ncc(-c4ccc(O)c(O)c4)o3)CSC12)c1csc(N)n1 (centres unmarked) [Ex. 62] please 0.05 µg/mL

Entry CON=C(C(=O)NC1C(=O)N2C(C(=O)O)=C(CSc3nc(C(=O)O)c(-c4ccc(O)c(O)c4)s3)CSC12)c1csc(N)n1 (centres unmarked) [Ex. 52] please 0.05 µg/mL

Entry CC(C)(O/N=C(\C(=O)N[C@@H]1C(=O)N2C(C(=O)O)=C(CSc3nc(-c4ccc(O)cc4)c(CC(=O)O)s3)CS[C@H]12)c1csc(N)n1)C(=O)O [compound 19, reference compound] please 1.56 µg/mL

Entry Nc1nc(/C(=N/OCc2ccc(O)c(O)c2)C(=O)N[C@@H]2C(=O)N3C(C(=O)O)=C(CSc4nnc(-c5ccc(O)c(O)c5)o4)CS[C@H]23)cs1 [Ex. 14] please 3.12 µg/mL

Entry CC(C)(O/N=C(\C(=O)N[C@@H]1C(=O)N2C(C(=O)O)=C(CSc3nnc(-c4ccccc4)o3)CS[C@H]12)c1csc(N)n1)C(=O)O [compound 3, reference compound] please 1.56 µg/mL

Entry Nc1nc(/C(=N/OC2(C(=O)O)CC2)C(=O)N[C@@H]2C(=O)N3C(C(=O)O)=C(CSc4nnc(-c5ccc(O)c(O)c5)o4)CS[C@H]23)cs1 [Ex. 12] please < 0.006 µg/mL
